Where these numbers come from: patent US8822464B2

target_or_system: human recombinant mGluR5 (Homo sapiens)
Construct: cultured with tetracycline, hygromycin and geneticin; tetracycline withdrawn 3-7 days before the assay
Sequence (P41594 21-1212): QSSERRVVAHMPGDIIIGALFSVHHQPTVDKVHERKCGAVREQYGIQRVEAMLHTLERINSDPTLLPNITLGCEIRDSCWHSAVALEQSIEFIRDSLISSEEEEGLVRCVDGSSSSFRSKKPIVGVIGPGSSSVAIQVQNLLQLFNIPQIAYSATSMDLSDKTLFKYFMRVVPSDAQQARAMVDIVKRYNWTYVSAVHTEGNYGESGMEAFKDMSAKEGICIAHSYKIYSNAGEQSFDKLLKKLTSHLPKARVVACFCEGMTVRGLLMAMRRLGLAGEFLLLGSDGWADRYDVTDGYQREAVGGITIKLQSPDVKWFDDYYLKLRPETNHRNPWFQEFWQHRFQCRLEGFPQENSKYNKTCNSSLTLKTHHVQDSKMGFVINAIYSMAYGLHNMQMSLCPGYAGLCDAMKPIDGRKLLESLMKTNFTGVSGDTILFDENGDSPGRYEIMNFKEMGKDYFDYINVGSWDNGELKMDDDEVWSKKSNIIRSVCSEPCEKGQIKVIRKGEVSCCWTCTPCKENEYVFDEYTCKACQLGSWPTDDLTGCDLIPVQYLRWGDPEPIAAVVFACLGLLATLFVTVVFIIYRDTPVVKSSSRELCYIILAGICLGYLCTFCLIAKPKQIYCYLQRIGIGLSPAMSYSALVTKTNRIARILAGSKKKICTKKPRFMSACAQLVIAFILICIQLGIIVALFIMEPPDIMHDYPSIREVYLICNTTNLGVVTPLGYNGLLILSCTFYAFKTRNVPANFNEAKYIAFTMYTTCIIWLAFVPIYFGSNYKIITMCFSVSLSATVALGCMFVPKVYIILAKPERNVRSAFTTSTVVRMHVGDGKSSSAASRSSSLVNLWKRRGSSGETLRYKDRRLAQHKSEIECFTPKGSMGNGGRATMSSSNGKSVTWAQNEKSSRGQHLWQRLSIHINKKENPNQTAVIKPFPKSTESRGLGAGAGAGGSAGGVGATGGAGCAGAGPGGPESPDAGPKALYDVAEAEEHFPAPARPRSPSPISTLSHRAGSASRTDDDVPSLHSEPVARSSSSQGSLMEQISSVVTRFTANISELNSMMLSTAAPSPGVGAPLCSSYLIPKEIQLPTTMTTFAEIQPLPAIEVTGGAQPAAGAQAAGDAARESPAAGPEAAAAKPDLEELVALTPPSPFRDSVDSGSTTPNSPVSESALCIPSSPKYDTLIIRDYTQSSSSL
assay_name: positive modulation of mGluR5, calcium based FLIPR assay in HEK 293 cells
recorded_conditions: HEK 293 cell line expressing human recombinant mGluR5; peak height of Ca release fluorescence signal after glutamate at approximately 5% basal stimulation; nonlinear regression
pEC50: −log10 of the molar value.
measured_parameter: pEC50

Solved cases below.
compound	pEC50
COc1cc(-c2cc(C(C)C)n(CC(=O)N3CCN(c4ncc(Br)cn4)CC3)n2)ccc1F [Example 7.01.50]	6.29
COCc1cc(-c2ccc(F)c(C)c2)nn1CC(=O)N1CCN(c2ncccn2)CC1 [Example 7.02.15]	6.82
CCCc1cc(-c2ccc(F)c(C)c2)nn1CC(=O)N1CCN(c2cc(OC)ccn2)CC1 [Example 7.01.80]	7.35
COc1cnc(N2CCN(C(=O)Cn3nc(-c4ccc(F)c(C)c4)cc3CC(C)C)CC2)nc1 [Example 7.01.123]	7.44
O=C(Cn1nc(-c2ccccc2)cc1-c1cc(Cl)cs1)N1CCN(c2ncccn2)CC1 [Example 7.01.143]	7.70
COc1cc(N2CCN(C(=O)Cn3nc(-c4ccc(F)cn4)cc3-c3ccccc3)CC2)ncn1 [Example 7.01.61]	6.61
O=C(Cn1nc(-c2ccc(F)cn2)cc1-c1ccc(F)cc1)N1CCN(c2ccccn2)CC1 [Example 7.01.59]	6.93
Cc1cc(-c2cc(-c3ccccc3)n(CC(=O)N3CCN(c4cc(OCC(C)O)ncn4)CC3)n2)ccc1F (stereo not shown) [Example 7.05.02]	7.42

P: Cc1cnc(-c2cc(-c3ccccc3)n(CC(=O)N3CCN(c4ncccn4)CC3)n2)cc1C [Example 7.01.135]
Q: COCc1cc(-c2ccc(F)c(C)c2)nn1CC(=O)N1CCN(c2cc(OC)ncn2)CC1 [Example 7.02.18]
Please choose the item with the lower pEC50 value from this pair: P and Q When you have decided, please share the label of that item. Q
(Q: 6.68, P: 7.68)

a: Cc1cc(-c2cc(CC(C)C)n(CC(=O)N3CCN(c4ccccn4)CC3)n2)ccc1F [Example 7.01.117]
b: CCc1cc(-c2cccc(Cl)c2)nn1CC(=O)N1CCN(c2ccccn2)CC1 [Example 7.01.114]
c: COc1ccnc(N2CCN(C(=O)Cn3nc(-c4ccc(F)c(C)c4)cc3C3CCCCC3)CC2)c1 [Example 7.01.37]
d: CCc1cc(-c2cc(C)c(F)c(C)c2)nn1CC(=O)N1CCN(c2cc(OC)ncn2)CC1 [Example 7.01.140]
e: CCCc1cc(-c2ccc(F)c(C)c2)nn1CC(=O)N1CCN(c2cccnn2)CC1 [Example 7.01.84]
Write the entries in order, lowest recorded pEC50 first. List the labels, following the order given in the request. d, c, b, e, a
(d: 6.15, c: 6.53, b: 6.82, e: 7.17, a: 7.55)
